Hey, just so you know, these numbers are from patent US12084460B2.

- TEST METHOD NOTES: Solubility
- Assay type: physicochemical
- STUDY CONDITIONS: aqueous buffers in bio-relevant media, aqueous buffer
QUANTITY: solubility

compound="Cc1cc(N2CCc3c(c(C)nn3CC34CCC(NC(=O)[C@@H]5COCCN5)(CC3)CC4)C2)c2cnn(C)c2n1 [Form HA]" result="~4 µg/mL"
